# System name: panel of 255 wild-type kinases (Homo sapiens, UniProt Q9P0L2)
# Sequence (Q9P0L2 whole entry): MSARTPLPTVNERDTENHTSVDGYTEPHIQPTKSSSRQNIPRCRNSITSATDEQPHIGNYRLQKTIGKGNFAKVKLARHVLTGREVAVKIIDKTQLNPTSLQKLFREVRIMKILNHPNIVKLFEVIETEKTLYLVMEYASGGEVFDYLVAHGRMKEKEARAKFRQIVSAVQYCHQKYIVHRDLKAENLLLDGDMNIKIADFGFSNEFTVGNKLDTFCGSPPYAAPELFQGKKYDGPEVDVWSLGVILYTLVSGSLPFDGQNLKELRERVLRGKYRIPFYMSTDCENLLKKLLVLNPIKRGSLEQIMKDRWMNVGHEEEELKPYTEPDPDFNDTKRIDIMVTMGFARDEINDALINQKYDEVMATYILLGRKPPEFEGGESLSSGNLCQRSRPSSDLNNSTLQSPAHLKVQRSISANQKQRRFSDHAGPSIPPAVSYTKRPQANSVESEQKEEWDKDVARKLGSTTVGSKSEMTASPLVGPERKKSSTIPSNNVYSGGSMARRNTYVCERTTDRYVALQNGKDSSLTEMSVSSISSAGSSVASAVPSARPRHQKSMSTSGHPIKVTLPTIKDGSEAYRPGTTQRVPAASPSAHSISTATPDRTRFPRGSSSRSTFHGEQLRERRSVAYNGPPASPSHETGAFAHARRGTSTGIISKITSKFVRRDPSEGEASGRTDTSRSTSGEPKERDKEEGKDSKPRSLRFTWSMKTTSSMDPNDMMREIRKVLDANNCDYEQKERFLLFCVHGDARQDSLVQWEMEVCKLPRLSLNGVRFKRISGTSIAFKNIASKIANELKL
# Protocol text: Kinase panel profiling at 1 µmol/L (MSA or IMAP), percentage inhibition
# Assay type: biochemical
# Particulars: MARK1; 1 µmol/L single concentration; read-out: %-inhibition, MARK1
Result type: inhibition at 1 µM (%)
Reply numerically in %, unit not repeated.

// CN1CCN(c2ccc(C(=O)Nc3n[nH]c4ccc(Cc5cc(F)cc(F)c5)cc34)c(NC3CCOCC3)c2)CC1 : inhibition at 1 µM value = 19

// Cc1nc(NC(=O)N2CCC[C@H]2C(N)=O)sc1-c1ccnc(C(C)(C)C(F)(F)F)c1 : inhibition at 1 µM value = -0.158

// O=C(Nc1cnn2ccc(N3CCC[C@@H]3c3cc(F)ccc3F)nc12)N1CC[C@H](O)C1 : inhibition at 1 µM value = -6.38

// CCN1C(=O)N(c2c(F)c(OC)cc(OC)c2F)Cc2cnc3[nH]c(CN4CCOCC4)cc3c21 : inhibition at 1 µM value = 57

// C[C@H]1Oc2cc(cnc2N)-c2c(nn(C)c2C#N)CN(C)C(=O)c2ccc(F)cc21 : inhibition at 1 µM value = 11

// CCc1nc(C(N)=O)c(Nc2ccc(N3CCC(N4CCN(C)CC4)CC3)c(OC)c2)nc1NC1CCOCC1 : inhibition at 1 µM value = 27

// COc1ccc(CN2C3CC2CN(c2ccc(-c4cc(OCC(C)(C)O)cn5ncc(C#N)c45)cn2)C3)cn1 : inhibition at 1 µM value = 22

Origin of values: paper PMC9516332
